Data provenance: patent US9102648B1

# test-protocol: Bi-directional permeability, CACO-2
# Format: in vitro ADME
# condition-parameters: human, Caco-2, pH 7, Papp, A-to-B Rep. 1
Measured Papp A→B at 2 h, 10 µM values are reported for all entries that follow.
Please state the figure in ×10⁻⁶ cm/s; there is no need to write the unit.

>  <compound>
CCC(N(NC(=O)c1cccc(C)c1C)C(=O)c1cc(C)cc(C)c1)C(C)(C)C (centres unmarked) [RG-103309]

>  <endpoint-unit>
×10⁻⁶ cm/s

>  <Papp A→B at 2 h, 10 µM>
25.2

$$$$

In: Consider the compound COc1ccc(C(=O)N(NC(=O)c2ccc3c(c2C)OCCO3)C(C)(C)C)c(OC)n1 [RG-115517] and give its recorded Papp A→B at 2 h, 10 µM.
Out: 28.4

In: Consider the compound CCc1ccc(C(=O)NN(C(=O)c2cc(C)cc(C)c2)C(C)(C)C)c(F)c1 [RG-101523] and give its recorded Papp A→B at 2 h, 10 µM.
Out: 24.2

In: Consider the compound Cc1cc(C)cc(C(=O)N(NC(=O)c2ccc3c(c2C)OCCO3)C(C)(C)C)c1 [RG-102317] and give its recorded Papp A→B at 2 h, 10 µM.
Out: 28.6

In: Consider the compound COc1cccc(C(=O)NN(C(=O)c2cc(C)cc(C)c2)C(C)(C)C)c1C [RG-102398] and give its recorded Papp A→B at 2 h, 10 µM.
Out: 27
